biological target: human S1P1 receptor (Homo sapiens); construct: membranes used; assay: GTP γ35S binding assay for S1P1 activity; settings: membranes of cells stably expressing S1P1 receptor
Sequence (P21453 whole entry): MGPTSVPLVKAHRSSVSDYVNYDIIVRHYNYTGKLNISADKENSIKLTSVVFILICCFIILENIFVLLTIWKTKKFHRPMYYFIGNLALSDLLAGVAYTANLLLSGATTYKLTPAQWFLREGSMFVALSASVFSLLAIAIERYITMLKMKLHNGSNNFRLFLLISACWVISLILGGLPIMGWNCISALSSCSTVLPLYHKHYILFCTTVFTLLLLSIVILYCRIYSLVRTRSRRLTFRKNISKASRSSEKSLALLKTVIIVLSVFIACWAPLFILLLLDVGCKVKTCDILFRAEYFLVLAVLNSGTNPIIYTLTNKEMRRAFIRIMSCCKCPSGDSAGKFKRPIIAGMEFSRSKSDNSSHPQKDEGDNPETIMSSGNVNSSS
metric: EC50 (nM)

Some molecules with known EC50 results, for comparison:
1) O=P(O)(O)CCCNCc1ccc(-c2ccc(CCC3CCCCC3)c(F)c2)c2cccnc12 [Compound 20]: 1.68
2) CCCCCCc1ccc(-c2ccc(CNCCO)c3ncccc23)cc1 [Compound 15]: 192

(1) CCCCCCc1ccc(-c2ccc(CNCCCP(=O)(O)O)c3ncccc23)cc1F [Compound 13]
(2) CCCCC(CC)CCc1ccc(-c2ccc(CNCCO)c3ncccc23)cc1F (centres unmarked) [Compound 22]
(3) O=P(O)(O)CCCNCc1ccc(-c2ccc(CCCc3ccccc3)cc2)c2cccnc12 [Compound 6]
Query string: Ranking field: EC50; order: falling. Record the ranking as a list of labels in the requested order.
Result string: 2, 3, 1
